Origin of the recorded values: paper PMC9643853

experiment: in vitro; conditions: human
CC50 at 4 days strictly less than 2 µM = satisfied. Otherwise not satisfied.

Illustrative cases are given below, each with its answer.
Is CC50 at 4 days of "CC(C)CNC(=O)c1cccc(-c2cnc3[nH]cc(C#Cc4cccnc4)c3c2)c1" strictly below 2 µM?
not satisfied

Is CC50 at 4 days of "CNC(=O)c1cccc(-c2cnc3[nH]cc(C#Cc4cccnc4)c3c2)c1" strictly below 2 µM?
not satisfied

Is CC50 at 4 days of "COc1cc(OC)cc(-c2cnc3[nH]cc(C#Cc4ccsc4)c3c2)c1" strictly below 2 µM?
satisfied

Is CC50 at 4 days of "O=C(NC1CC1)c1cccc(-c2cnc3[nH]cc(C#Cc4cccnc4)c3c2)c1" strictly below 2 µM?
not satisfied

Is CC50 at 4 days of "COc1cncc(C#Cc2c[nH]c3ncc(-c4cccc(C(=O)NC5CC5)c4)cc23)c1" strictly below 2 µM?
not satisfied

Is CC50 at 4 days of "O=C(NC1CC1)c1cccc(-c2cnc3[nH]cc(C#Cc4ccsc4)c3c2)c1" strictly below 2 µM?
not satisfied

More entries:
Is CC50 at 4 days of "Fc1ccc(-c2cnc3[nH]cc(C#Cc4cccnc4)c3c2)cc1" strictly below 2 µM?
not satisfied

Is CC50 at 4 days of "COc1cc(OC)cc(-c2cnc3[nH]cc(C#Cc4ccc(F)cc4)c3c2)c1" strictly below 2 µM?
satisfied

Is CC50 at 4 days of "O=C(NC1CC1)c1ccc(-c2cnc3[nH]cc(C#Cc4cccnc4)c3c2)cc1" strictly below 2 µM?
not satisfied

Is CC50 at 4 days of "COc1cc(OC)cc(-c2cnc3[nH]cc(C#Cc4ccccn4)c3c2)c1" strictly below 2 µM?
satisfied

Is CC50 at 4 days of "COc1cccc(-c2cnc3[nH]cc(C#Cc4cccnc4)c3c2)c1" strictly below 2 µM?
not satisfied

----------
Catalogue of EC50 values
test system: RSV-A; test: Anti-RSV-A activity in A549 cells, viral RNA in supernatant by RT-qPCR; format: cell-based, RSV-A strain Long; settings: human respiratory syncytial virus, 120 h; A549 cells, RT-qPCR of culture supernatant, MOI 0.1, 5 days; read-out: RSV-A EC50 (A549, viral RNA levels)
# number only, unit nM dropped from output

Observe how each entry below is paired with its result.
Missing value: EC50, RSV-A, entry O=C(NC1CC1)c1cccc(-c2cnc3[nH]cc(C#Cc4cccnc4)c3c2)c1 [Compound 8f] . Fill in?
590

Missing value: EC50, RSV-A, entry CNC(=O)c1cccc(-c2cnc3[nH]cc(C#Cc4cccnc4)c3c2)c1 [Compound 8e] . Fill in?
200

Here is another compound to look at.
Missing value: EC50, RSV-A, entry CCNC(=O)c1ccc(-c2cnc3[nH]cc(C#Cc4cccnc4)c3c2)cc1 [Compound 8b] . Fill in?
10

----------
experiment: in vitro; details: African green monkey
Endpoint label: CC50

Observe how each entry below is paired with its result.
What value of CC50 has been reported for the following compound? "CC(C)CNC(=O)c1cccc(-c2cnc3[nH]cc(C#Cc4cccnc4)c3c2)c1"
> 85 µM

What value of CC50 has been reported for the following compound? "CCNC(=O)c1ccc(-c2cnc3[nH]cc(C#Cc4cccnc4)c3c2)cc1"
> 100 µM

What value of CC50 has been reported for the following compound? "O=C(c1cccc(-c2cnc3[nH]cc(C#Cc4cccnc4)c3c2)c1)N1CCCC1"
6.46 µM

More entries:
What value of CC50 has been reported for the following compound? "CCN(CC)C(=O)c1cccc(-c2cnc3[nH]cc(C#Cc4cccnc4)c3c2)c1"
88.5 µM

What value of CC50 has been reported for the following compound? "Cc1cncc(C#Cc2c[nH]c3ncc(-c4cccc(C(=O)NC5CC5)c4)cc23)c1"
> 100 µM

What value of CC50 has been reported for the following compound? "COCCNC(=O)c1cccc(-c2cnc3[nH]cc(C#Cc4cccnc4)c3c2)c1"
> 100 µM

----------
test: in vitro; conditions: human
Catalogue of CC50 at 4 days values

Observe how each entry below is paired with its result.
What value of CC50 at 4 days has been reported for the following compound? "O=C(c1cccc(-c2cnc3[nH]cc(C#Cc4cccnc4)c3c2)c1)N1CCOCC1"
10.9 µM

What value of CC50 at 4 days has been reported for the following compound? "COc1cccc(C#Cc2c[nH]c3ncc(-c4cc(OC)cc(OC)c4)cc23)c1"
> 50 µM

What value of CC50 at 4 days has been reported for the following compound? "C(#Cc1c[nH]c2ncc(-c3ccsc3)cc12)c1cccnc1"
> 50 µM

More entries:
What value of CC50 at 4 days has been reported for the following compound? "O=C(NC1CC1)c1cccc(-c2cnc3[nH]cc(C#Cc4ccc(F)nc4)c3c2)c1"
> 50 µM

What value of CC50 at 4 days has been reported for the following compound? "CCN(CC)C(=O)c1cccc(-c2cnc3[nH]cc(C#Cc4cccnc4)c3c2)c1"
4.04 µM

What value of CC50 at 4 days has been reported for the following compound? "O=C(NC1CC1)c1cccc(-c2cnc3[nH]cc(C#Cc4cccc(Cl)c4)c3c2)c1"
> 50 µM

What value of CC50 at 4 days has been reported for the following compound? "CN(C)C(=O)c1cccc(-c2cnc3[nH]cc(C#Cc4cccnc4)c3c2)c1"
> 50 µM

----------
test system: RSV-A; experiment: Anti-RSV-A activity in A549 cells, viral RNA in supernatant by RT-qPCR; format: cell-based, RSV-A strain Long; details: human respiratory syncytial virus, A549, 120 h, read-out: RSV-A EC50 (A549, viral RNA levels)
Endpoint label: pEC50
pEC50 is a log-scale quantity: -log10 of the concentration expressed in molar.

What value of pEC50 has been reported for the following compound? COc1cc(OC)cc(-c2cnc3[nH]cc(C#Cc4cccnc4)c3c2)c1 [Compound 4d]
7.30

----------
AAK1 (Homo sapiens, UniProt Q2M2I8) IC50 data
Sequence (Q2M2I8 whole entry): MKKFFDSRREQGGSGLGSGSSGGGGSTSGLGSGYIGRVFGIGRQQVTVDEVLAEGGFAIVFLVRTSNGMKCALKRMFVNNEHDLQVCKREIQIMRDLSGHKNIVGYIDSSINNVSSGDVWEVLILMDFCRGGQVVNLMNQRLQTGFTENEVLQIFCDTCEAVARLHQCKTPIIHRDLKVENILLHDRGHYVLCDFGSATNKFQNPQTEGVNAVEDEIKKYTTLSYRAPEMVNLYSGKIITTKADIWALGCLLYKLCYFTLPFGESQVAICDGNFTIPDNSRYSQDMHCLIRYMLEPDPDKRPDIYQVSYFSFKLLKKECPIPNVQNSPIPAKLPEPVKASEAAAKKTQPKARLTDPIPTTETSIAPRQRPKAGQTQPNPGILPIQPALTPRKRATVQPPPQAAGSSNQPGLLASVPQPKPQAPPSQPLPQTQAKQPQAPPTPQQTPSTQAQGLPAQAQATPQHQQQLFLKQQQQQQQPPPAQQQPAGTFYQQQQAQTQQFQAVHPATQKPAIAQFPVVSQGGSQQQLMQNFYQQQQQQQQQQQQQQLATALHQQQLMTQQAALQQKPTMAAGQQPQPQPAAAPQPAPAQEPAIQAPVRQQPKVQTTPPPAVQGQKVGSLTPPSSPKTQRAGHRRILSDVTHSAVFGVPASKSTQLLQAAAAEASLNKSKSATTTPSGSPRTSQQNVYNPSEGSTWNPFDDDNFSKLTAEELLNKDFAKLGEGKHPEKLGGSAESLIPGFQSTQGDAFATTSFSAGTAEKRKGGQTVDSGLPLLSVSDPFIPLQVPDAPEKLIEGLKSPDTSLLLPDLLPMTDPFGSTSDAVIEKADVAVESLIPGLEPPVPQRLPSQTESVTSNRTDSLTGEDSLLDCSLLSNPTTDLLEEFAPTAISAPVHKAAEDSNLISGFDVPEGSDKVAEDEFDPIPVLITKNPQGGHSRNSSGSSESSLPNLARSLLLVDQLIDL
# number only, unit nM dropped from output

Observe how each entry below is paired with its result.
Missing value: IC50, AAK1 (Homo sapiens, UniProt Q2M2I8), entry "CCNC(=O)c1ccc(-c2cnc3[nH]cc(C#Cc4cccnc4)c3c2)cc1" . Fill in?
4

Missing value: IC50, AAK1 (Homo sapiens, UniProt Q2M2I8), entry "COc1cc(OC)cc(-c2cnc3[nH]cc(C#Cc4cccnc4)c3c2)c1" . Fill in?
6.2

Missing value: IC50, AAK1 (Homo sapiens, UniProt Q2M2I8), entry "O=C(NC1CC1)c1cccc(-c2cnc3[nH]cc(C#Cc4cccnc4)c3c2)c1" . Fill in?
5.4

Missing value: IC50, AAK1 (Homo sapiens, UniProt Q2M2I8), entry "COc1ccc(-c2cnc3[nH]cc(C#Cc4cccnc4)c3c2)cc1OC" . Fill in?
4.2

Here is another molecule to look at.
Missing value: IC50, AAK1 (Homo sapiens, UniProt Q2M2I8), entry "CNC(=O)c1cccc(-c2cnc3[nH]cc(C#Cc4cccnc4)c3c2)c1" . Fill in?
3.5

----------
system: RSV-A; assay: RSV-A cytopathic effect (CPE) reduction assay in HEp-2 cells, MTS read-out; assay type: cell-based, human respiratory syncytial virus, RSV-A strain Long; conditions: HEp-2 cells, inhibition of virus-induced cytopathogenicity by 50%, MOI 0.01, 4 days; read-out: RSV-A EC50
Endpoint label: EC50
Express your answer as a number followed by its unit.

Missing value: EC50, RSV-A, entry Cc1ccc(CCCO)c(NCc2ccc3nc(NCCCN4CCOCC4)n(Cc4nc(C)ccc4O)c3c2)c1 [TMC353121, reference compound] . Fill in?
1.3 nM

----------
assay: in vitro; conditions: human
Catalogue of CC50 at 4 days values

What value of CC50 at 4 days has been reported for the following compound? COc1cccc(C#Cc2c[nH]c3ncc(-c4cccc(C(=O)NC5CC5)c4)cc23)c1 [Compound 9g]
> 20 µM

What value of CC50 at 4 days has been reported for the following compound? CCNC(=O)c1ccc(-c2cnc3[nH]cc(C#Cc4cccnc4)c3c2)cc1 [Compound 8b]
50 µM

What value of CC50 at 4 days has been reported for the following compound? Clc1cccc(-c2cnc3[nH]cc(C#Cc4cccnc4)c3c2)c1 [Compound 4h]
> 50 µM

More entries:
What value of CC50 at 4 days has been reported for the following compound? C(#Cc1c[nH]c2ncc(-c3ccoc3)cc12)c1cccnc1 [Compound 4j]
> 50 µM

What value of CC50 at 4 days has been reported for the following compound? COc1ccc(-c2cnc3[nH]cc(C#Cc4cccnc4)c3c2)cc1OC [Compound 1]
2 µM

What value of CC50 at 4 days has been reported for the following compound? CCn1cc(C#Cc2cccnc2)c2cc(-c3cc(OC)cc(OC)c3)cnc21 [Compound 7b]
2 µM

What value of CC50 at 4 days has been reported for the following compound? COc1cc(OC)cc(-c2cnc3[nH]cc(C#Cc4ccccc4)c3c2)c1 [Compound 5b]
6 µM

What value of CC50 at 4 days has been reported for the following compound? COc1cc(OC)cc(-c2cnc3[nH]cc(C#Cc4cccc(Cl)c4)c3c2)c1 [Compound 5d]
> 50 µM

What value of CC50 at 4 days has been reported for the following compound? O=C(NCc1ccccc1)c1cccc(-c2cnc3[nH]cc(C#Cc4cccnc4)c3c2)c1 [Compound 8i]
> 50 µM

What value of CC50 at 4 days has been reported for the following compound? O=C(NC1CC1)c1cccc(-c2cnc3[nH]cc(C#Cc4ccccc4)c3c2)c1 [Compound 9d]
> 50 µM

What value of CC50 at 4 days has been reported for the following compound? COCCOc1ccc(-c2cnc3[nH]cc(C#Cc4cccnc4)c3c2)cc1 [Compound 4f]
> 50 µM

What value of CC50 at 4 days has been reported for the following compound? COc1cc(-c2cnc3[nH]cc(C#Cc4cccnc4)c3c2)ccn1 [Compound 4g]
> 50 µM
